Molecular target: Bcl-2-like protein 10 (Homo sapiens) (UniProt Q9HD36)
Sequence (Q9HD36 whole entry, looked up): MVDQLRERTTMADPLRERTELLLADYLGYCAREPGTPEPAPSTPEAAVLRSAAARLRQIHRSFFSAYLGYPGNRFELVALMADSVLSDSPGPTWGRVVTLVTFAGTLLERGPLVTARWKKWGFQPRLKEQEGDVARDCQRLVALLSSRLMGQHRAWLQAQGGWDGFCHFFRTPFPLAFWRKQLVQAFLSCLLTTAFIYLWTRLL
Assay: TR3 peptide-Bcl-B binding displacers, biochemical primary FP assay, phenotype converters (AID 1240);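 further: 0% = Bcl-B with tracer peptide and DMSO and 100% = tracer peptide lacking Bcl-B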
Conditions: GST-Bcl-B / FITC-TR3 peptide fluorescence polarization; stronger effect = higher value; compound at 3.75 mg/L
Screen size: about 50,000 compounds; about 800 (1.6%) showed an effect of 50% or more. For the sample, strong results were picked, then their nearest neighbours and some compounds at random.
Answer each item with its documented displacement.
One number for each entry, in %.

Nc1ccc(C(=O)Nc2cccc(O)c2)cc1 : 11.4
Cc1ccc(S(=O)(=O)Nc2ccccc2C(=O)Nc2ccccc2)cc1 : 9.6
O=C1C(C=NCc2ccc3c(c2)OCO3)=C(O)c2ccccc21 : 134

// for each molecule in input: emit displacement
1. CC(=O)/C=C/c1oc2ccc([N+](=O)[O-])cc2c1-c1ccc(C)o1
2. COc1ccc(/C(N)=N/OC(=O)c2ccc(Cl)cc2)cc1
3. CC1CCC2(CC1)C(C#N)=C(SCC(N)=O)NC(=O)C2C#N (stereo not given)

output:
1: 80.9; 2: 83.7; 3: -7.2

// for each molecule in input: emit displacement
1. COc1cc2nnc(/C=C/C(C)=O)c(-c3ccc(C)o3)c2cc1OC
2. COC1=C(c2ccccc2)C(=O)c2ccccc2C1=O
3. Cc1sc2nc(SCC(=O)NCCO)n(-c3ccccc3)c(=O)c2c1C
4. CCC1=NN2C(=N)/C(=C/c3ccc(-c4cccc([N+](=O)[O-])c4)o3)C(=O)N=C2S1
5. O=C1CC(c2ccccc2)CC(O)=C1C=NCc1ccc2c(c1)OCO2 (stereo not given)

output:
[48, -8.5, 1.9, 124, -2.5]

// for each molecule in input: emit displacement
1. O=C1c2ccccc2-c2onc3ccc(Cl)c1c23
2. COc1ccc(-c2nc3cc(N)ccc3o2)cc1OC
3. CC1=NN(c2cccc(Cl)c2)C(=O)/C1=C/C=C/c1cccc([N+](=O)[O-])c1
4. CC1=NN(c2ccccc2)C(=O)C1C(C)C[N+](=O)[O-] (stereo not given)
5. CC(C)CCOC(=O)c1ccc2c3c(onc13)-c1ccccc1C2=O

output:
[40.4, 2.7, 13.6, -9.8, 21]

// for each molecule in input: emit displacement
1. Cc1ccc(N2C(=O)NC(=O)/C(=C\c3ccc(C)s3)C2=O)cc1
2. COc1ccccc1-n1c(SCC(=O)c2ccccc2)nc2ccccc2c1=O
3. CCC1=NN2C(=N)/C(=C/c3ccc(-c4ccc([N+](=O)[O-])cc4OC)o3)C(=O)N=C2S1
4. COc1ccc2noc3c2c1C(=O)c1ccccc1-3
5. Cc1ccc(OCC(=O)O/N=C(\N)c2ccncc2)c(C)c1
6. COc1cc([N+](=O)[O-])ccc1-c1ccc(/C=C2\C(=O)N(c3ccc(S(N)(=O)=O)cc3)N=C2C)o1
7. COc1ccc(Cl)cc1C(=O)Nc1cccc2nsnc12

output:
1. 13.4
2. -4.7
3. 4.4
4. 127
5. 2.5
6. 5.3
7. 12.8

// for each molecule in input: emit displacement
1. CCOc1ccc(Nc2ccc3noc4c3c2C(=O)c2ccccc2-4)cc1
2. C/C(=N\NC(=O)c1ccncc1)c1ccco1

output:
1. -2
2. -4.8
